system: serum lipid level; assay: Standard test on a male rat with normal serum lipid level (hypolipidemic action, 8 peroral administrations); format: in vivo; conditions: Rattus norvegicus, po, 192 h; 100 mg/kg/day p.o., 8 administrations; value before the oblique stroke (anterior value = 100%); read-out: % change of Serum-Cholesterin, after treatment vs starting value before treatment
measuredQuantity: change in vivo at 100 mg/kg (%)
Give bare numbers, in %.

Use the examples below as a reference point.
molecule: CC(O)(c1ccc(OC(F)(F)C(F)Cl)cc1)c1nccn1Cc1ccccc1 (stereo not shown) [Example 10]
assayTarget: serum lipid level
unitAnnotation: %
change in vivo at 100 mg/kg: -36

molecule: Cn1c(C(O)(c2ccccc2)c2ccc(Cl)cc2Cl)nc2ccccc21 (stereo not shown) [Example 6]
assayTarget: serum lipid level
unitAnnotation: %
change in vivo at 100 mg/kg: -12

For the 6 molecules below, give their change in vivo at 100 mg/kg values.
1. COc1ccc(C(O)c2nccn2-c2ccccc2)cc1OC (stereo not shown) [Example 11]
2. CC(C)n1ccnc1C(C)(O)c1ccc(Cl)cc1 (stereo not shown) [Example 8]
3. Cn1ccnc1C(O)(c1ccccc1)c1ccc(Cl)cc1Cl (stereo not shown) [Example 5]
4. Cn1c(C(O)c2nccn2Cc2ccccc2)nc2ccccc21 (stereo not shown) [Example 9]
5. CC(O)c1nccn1Cc1ccccc1 (stereo not shown) [Example 2, 1-[1-benzylimidazolyl-(2)]-ethanol]
6. CCOC(=O)C(C)(C)Oc1ccc(Cl)cc1 [Clofibrate, reference compound]

Result:
1: -24; 2: -14; 3: -19; 4: -21; 5: -24; 6: -22

For the 2 molecules below, give their change in vivo at 100 mg/kg values.
1. OC(c1ccccc1)(c1ncc[nH]1)c1ncc[nH]1 [Example 7, Bis-[imidazolyl-(2)]-phenyl-carbinol]
2. OC1(c2nccn2Cc2ccccc2)c2ccccc2-c2ccccc21 [Example 4, 9-[1-Benzylimidazolyl-(2)]-fluorene-9-ol]

Result:
[-7, -16]

----------
test system: serum lipid level; assay: Standard test on a male rat with normal serum lipid level (hypolipidemic action, 8 peroral administrations); format: in vivo; details: Rattus norvegicus, po, 192 h; 30 mg/kg/day p.o., 8 administrations; value behind the oblique stroke (placebo posterior value = 100%); read-out: % change of Serum-triglycerides, treated group vs placebo group
For each entry below, report its change in vivo at 30 mg/kg value.
One number for each entry, in %.

For the 2 compounds below, give their change in vivo at 30 mg/kg values.
1. CCOC(=O)C(C)(C)Oc1ccc(Cl)cc1 [Clofibrate, reference compound]
2. OC(c1ccccc1)(c1nccn1Cc1ccccc1)c1nccn1Cc1ccccc1 [Example 1]

Result:
-7
-10

For the 2 compounds below, give their change in vivo at 30 mg/kg values.
1. Cn1c(C(O)(c2ccccc2)c2ccc(Cl)cc2Cl)nc2ccccc21 (stereo not shown) [Example 6]
2. Cn1ccnc1C(O)(c1ccccc1)c1ccc(Cl)cc1Cl (stereo not shown) [Example 5]

Result:
1: -29; 2: -17

----------
For each entry below, report its LD50 value.
experiment: acute toxicity, LD50 determined on the mouse upon oral administration; settings: in vivo

Use the examples below as a reference point.
compound: OC1(c2nccn2Cc2ccccc2)c2ccccc2-c2ccccc21 [Example 4, 9-[1-Benzylimidazolyl-(2)]-fluorene-9-ol]
LD50: > 4000 mg/kg
//
compound: Cn1c(C(O)(c2ccccc2)c2ccc(Cl)cc2Cl)nc2ccccc21 (stereo not drawn)
LD50: > 4000 mg/kg
//
compound: CC(C)n1ccnc1C(C)(O)c1ccc(Cl)cc1 (stereo not drawn)
LD50: > 4000 mg/kg

For the 4 compounds below, give their LD50 values.
1. CC(C)n1ccnc1C(O)C(Cl)(Cl)Cl (stereo not drawn)
2. OC(c1ccccc1)(c1nccn1Cc1ccccc1)c1nccn1Cc1ccccc1
3. CC(O)(c1ccc(OC(F)(F)C(F)Cl)cc1)c1nccn1Cc1ccccc1 (stereo not drawn)
4. Cn1c(C(O)c2nccn2Cc2ccccc2)nc2ccccc21 (stereo not drawn)

Result:
> 4000 mg/kg
> 4000 mg/kg
> 4000 mg/kg
> 4000 mg/kg

For the 5 compounds below, give their LD50 values.
1. OC(c1ccccc1)(c1ncc[nH]1)c1ncc[nH]1 [Example 7, Bis-[imidazolyl-(2)]-phenyl-carbinol]
2. CC(O)c1nccn1Cc1ccccc1 (stereo not drawn) [Example 2, 1-[1-benzylimidazolyl-(2)]-ethanol]
3. Cn1ccnc1C(O)(c1ccccc1)c1ccc(Cl)cc1Cl (stereo not drawn)
4. CCOC(=O)C(C)(C)Oc1ccc(Cl)cc1 [Clofibrate, reference compound]
5. COc1ccc(C(O)c2nccn2-c2ccccc2)cc1OC (stereo not drawn)

Result:
> 4000 mg/kg
1120 mg/kg
> 4000 mg/kg
2000 to 2500 mg/kg
> 4000 mg/kg
